Molecular target: CDK9/cyclin T1 (Homo sapiens) (UniProt O60563+P50750)
Test: Inhibition of CDK9/CyclinT1 (unknown origin) at 500 nM by ADP-Glo kinase assay relative to control
Assay type: protein-complex assay
property.measured: inhibition
Provide the measurement as a number trailed by its unit.

Enquiry: Look up inhibition for this compound: N[C@H]1CCN(c2c3c(nc4ccc(-c5ccnc(Nc6cccc(S(=O)(=O)N7CCOCC7)c6)c5)cc24)CCCCC3)C1
Return: 57.5%

Enquiry: # repeat for Cl.N[C@H]1CCN(c2c3c(nc4ccc(-c5ccnc(NC(=O)C6CC6)n5)cc24)CCCCC3)C1
Return: 99.8%

Enquiry: Can you check N[C@H]1CCN(c2c3c(nc4ccc(-c5ccnc(NC(=O)C6CC6)n5)cc24)-c2ccccc2CCC3)C1 next?
Return: 72.7%

Enquiry: Same question, CS(=O)(=O)c1ccc(Nc2cc(-c3ccc4nc5c(c(N6CC[C@H](N)C6)c4c3)CCCCC5)ccn2)cc1 this time
Return: 80.2%

Enquiry: Queued: CN1CCN(S(=O)(=O)c2ccc(Nc3cc(-c4ccc5nc6c(c(N7CC[C@H](N)C7)c5c4)CCCCC6)ccn3)cc2)CC1
Return: 57.2%

Enquiry: # iterate: N[C@H]1CCN(c2c3c(nc4ccc(-c5ccnc(F)c5)cc24)CCCCC3)C1
Return: 73%

Enquiry: Next record, please: N[C@H]1CCN(c2c3c(nc4ccc(-c5ccnc(Nc6ccc(S(=O)(=O)N7CCOCC7)cc6)c5)cc24)CCCCC3)C1
Return: 62.4%

* * *

Assay: Acute toxicity in po dosed Kunming mouse assessed as survival measured for 2 weeks
Format: organism-based
Conditions: in vivo
property.measured: LD50 at 336 h (mg/kg)
Write the answer as a number in mg/kg, unit excluded.

Enquiry: Look up LD50 at 336 h: Cl.N[C@H]1CCN(c2c3c(nc4ccc(-c5ccnc(NC(=O)C6CC6)n5)cc24)CCCCC3)C1
Return: 104

* * *

Test: Selectivity index, ratio of IC50 for human full length CDK2/CyclinA to IC50 for CDK9/CyclinT1 (unknown origin)
Mark each entry true if its Selectivity Index sits below 3, and false for all others.

Enquiry: Selectivity Index strictly < 3 for this compound? N[C@H]1CCN(c2c3c(nc4ccc(-c5ccnc(NC(=O)C6CCCC6)c5)cc24)CCCCC3)C1
Return: false

Enquiry: Try N[C@H]1CCN(c2c3c(nc4ccc(-c5ccnc(NC(=O)C6CC6)n5)cc24)CCCCCC3)C1 next.
Return: false

Enquiry: Now the compound N[C@H]1CCN(c2c3c(nc4ccc(-c5ccnc(NC(=O)C6CCCCC6)c5)cc24)CCCCC3)C1
Return: false

Enquiry: Here is the next compound: N[C@H]1CCN(c2c3c(nc4ccc(-c5ccnc(NC(=O)C6CCC6)c5)cc24)CCC3)C1
Return: false

Enquiry: Lookup CN(C)S(=O)(=O)c1ccc(Nc2cc(-c3ccc4nc5c(c(N6CC[C@H](N)C6)c4c3)CCCCC5)ccn2)cc1
Return: true

Enquiry: // same read-out, input: N[C@H]1CCN(c2c3c(nc4ccc(-c5ccnc(NC(=O)C6CC6)c5)cc24)CCC3)C1
Return: false

* * *

Experiment: Acute toxicity in Kunming mouse assessed as survival at 69 mg/kg, po measured for 2 weeks
Type: organism-based
Settings: in vivo
property.measured: survival at 336 h (%)
Please state the figure in %; there is no need to write the unit.

Enquiry: Endpoint output: survival at 336 h of Cl.N[C@H]1CCN(c2c3c(nc4ccc(-c5ccnc(NC(=O)C6CC6)n5)cc24)CCCCC3)C1 . Value?
Return: 100

* * *

Assay: AUC (0 to t) in Sprague-Dawley rat at 20 mg/kg, po
Assay type: ADME, organism-based
Set-up: dose 20 mg/kg, route po
Conditions: in vivo
property.measured: AUC(0-t) (µg·h/mL)
// return numeric value only (unit: µg·h/mL, not printed)

Enquiry: // returns reported AUC(0-t) for input Cl.N[C@H]1CCN(c2c3c(nc4ccc(-c5ccnc(NC(=O)C6CC6)n5)cc24)CCCCC3)C1
Return: 0.302

* * *

Biological target: Cholinesterase (Equus caballus, UniProt P81908)
Sequence (P81908 whole entry): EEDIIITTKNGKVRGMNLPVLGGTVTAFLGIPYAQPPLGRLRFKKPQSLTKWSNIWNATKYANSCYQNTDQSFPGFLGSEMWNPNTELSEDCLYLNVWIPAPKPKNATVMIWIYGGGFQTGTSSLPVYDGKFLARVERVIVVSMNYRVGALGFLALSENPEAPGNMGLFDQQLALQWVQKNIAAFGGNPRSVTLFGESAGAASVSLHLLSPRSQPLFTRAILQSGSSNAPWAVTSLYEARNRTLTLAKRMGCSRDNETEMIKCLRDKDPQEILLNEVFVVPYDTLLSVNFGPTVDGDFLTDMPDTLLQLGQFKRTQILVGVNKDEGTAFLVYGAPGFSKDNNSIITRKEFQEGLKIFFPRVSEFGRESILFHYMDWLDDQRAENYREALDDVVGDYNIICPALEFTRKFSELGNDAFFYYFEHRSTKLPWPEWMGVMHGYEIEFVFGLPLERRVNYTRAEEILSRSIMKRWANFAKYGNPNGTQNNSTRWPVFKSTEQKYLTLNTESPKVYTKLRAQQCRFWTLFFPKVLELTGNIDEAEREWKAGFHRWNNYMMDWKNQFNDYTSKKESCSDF
Experiment: Inhibition of equine serum BuChE using […] as substrate for 20 mins by Ellman's method
property.measured: IC50 (µM)
# number only, unit µM dropped from output

Enquiry: So what does the record say about IC50 for N[C@H]1CCN(c2c3c(nc4ccc(-c5ccnc(NC(=O)C6CC6)c5)cc24)-c2ccccc2CCC3)C1 ?
Return: 3.34

Enquiry: Follow-up entry: Cl.N[C@H]1CCN(c2c3c(nc4ccc(-c5ccnc(NC(=O)C6CC6)n5)cc24)CCCCC3)C1
Return: 2.77

Enquiry: Let us now turn to CS(=O)(=O)c1ccc(Nc2cc(-c3ccc4nc5c(c(N6CC[C@H](N)C6)c4c3)CCCCC5)ccn2)cc1
Return: 3.05

Enquiry: Can you handle N[C@@H]1CCN(c2c3c(nc4ccc(-c5ccnc(NC(=O)C6CC6)c5)cc24)CCCCC3)C1 next?
Return: 4.78

* * *

Assay: Tmax in Sprague-Dawley rat at 2 mg/kg, iv
Type: ADME, organism-based
Conditions: in vivo
property.measured: Tmax

Enquiry: Which value of Tmax has been reported for Cl.N[C@H]1CCN(c2c3c(nc4ccc(-c5ccnc(NC(=O)C6CC6)n5)cc24)CCCCC3)C1 in the records?
Return: 4.98 min

* * *

Molecular target: Cholinesterase (Equus caballus, UniProt P81908)
Test: Inhibition of equine serum BuChE using […] as substrate for 20 mins by Ellman's method
property.measured: pIC50
In plain terms, pIC50 is the concentration in mol/L turned into minus its base-10 logarithm.

Enquiry: Look up pIC50: N[C@H]1CCN(c2c3c(nc4ccc(-c5ccnc(NC(=O)C6CCC6)c5)cc24)CCC3)C1
Return: 5.50

Enquiry: Next: CN1CCN(S(=O)(=O)c2ccc(Nc3cc(-c4ccc5nc6c(c(N7CC[C@H](N)C7)c5c4)CCCCC6)ccn3)cc2)CC1
Return: 5.36

Enquiry: Similarly, N[C@H]1CCN(c2c3c(nc4ccc(-c5ccnc(NC(=O)C6CCCCC6)c5)cc24)CCCCC3)C1 ?
Return: 5.78

Enquiry: Then this molecule: N[C@H]1CCN(c2c3c(nc4ccc(-c5ccnc(Nc6ccc(S(=O)(=O)N7CCNCC7)cc6)c5)cc24)CCCCC3)C1
Return: 5.55

Enquiry: Please answer likewise for N[C@H]1CCN(c2c3c(nc4ccc(-c5ccnc(NC(=O)C6CC6)c5)cc24)CCCCC3)C1
Return: 5.71

Enquiry: Can you check N[C@H]1CCN(c2c3c(nc4ccc(-c5cccnc5)cc24)CCCCC3)C1 next?
Return: 6.14

Enquiry: Repeat for the following molecule: N[C@H]1CCN(c2c3c(nc4ccc(-c5ccnc(NC(=O)C6CCC6)c5)cc24)CCCCC3)C1
Return: 5.93

Enquiry: # iterate: N[C@H]1CCN(c2c3c(nc4ccc(-c5ccnc(NC(=O)C6CC6)n5)cc24)CCCCCC3)C1
Return: 5.56

Enquiry: Entry N[C@H]1CCN(c2c3c(nc4ccc(-c5ccnc(Nc6ccc(S(=O)(=O)N7CCCC7)cc6)c5)cc24)CCCCC3)C1 please
Return: 5.30

Enquiry: Entry CN(C)S(=O)(=O)c1ccc(Nc2cc(-c3ccc4nc5c(c(N6CC[C@H](N)C6)c4c3)CCCCC5)ccn2)cc1 please
Return: 5.98

Enquiry: Queued: N[C@H]1CCN(c2c3c(nc4ccc(-c5ccnc(Nc6cccc(S(=O)(=O)N7CCOCC7)c6)c5)cc24)CCCCC3)C1
Return: 5.70

Enquiry: Then what about the molecule N[C@H]1CCN(c2c3c(nc4ccc(-c5ccnc(F)c5)cc24)CCCCC3)C1 ?
Return: 5.65

Enquiry: Repeat for the following molecule: N[C@H]1CCN(c2c3c(nc4ccc(-c5nccc(NC(=O)C6CC6)n5)cc24)CCCCC3)C1
Return: 5.60

Enquiry: How about this molecule: N[C@H]1CCN(c2c3c(nc4ccc(-c5ccncc5)cc24)CCCCC3)C1
Return: 6.37

Enquiry: Repeat for the following molecule: N[C@H]1CCN(c2c3c(nc4ccc(-c5ccnc(NC(=O)C6CCCC6)c5)cc24)CCCCC3)C1
Return: 5.93

Enquiry: Also, N[C@H]1CCN(c2c3c(nc4ccc(-c5ccnc(NC(=O)C6CC6)n5)cc24)-c2ccccc2CCC3)C1 please.
Return: 4.90

Enquiry: Same read-out for N[C@H]1CCN(c2c3c(nc4ccc(-c5cc(NC(=O)C6CC6)ncn5)cc24)CCCCC3)C1 ?
Return: 5.41

* * *

System: MCF7
Test: Antiproliferative activity against human MCF7 cells assessed as cell growth inhibition after 72 hrs by MTT assay
Assay type: functional
// classify: if (GI50 < 2000 nM) 1 else 0

Enquiry: Say whether its GI50 is strictly beneath 2000 nM. Entry: N[C@H]1CCN(c2c3c(nc4ccc(-c5ccnc(NC(=O)C6CC6)n5)cc24)-c2ccccc2CCC3)C1
Return: 0

Enquiry: Record: CN1CCN(S(=O)(=O)c2ccc(Nc3cc(-c4ccc5nc6c(c(N7CC[C@H](N)C7)c5c4)CCCCC6)ccn3)cc2)CC1
Return: 0

Enquiry: Record: CS(=O)(=O)c1ccc(Nc2cc(-c3ccc4nc5c(c(N6CC[C@H](N)C6)c4c3)CCCCC5)ccn2)cc1
Return: 0

Enquiry: Next record, please: N[C@H]1CCN(c2c3c(nc4ccc(-c5ccnc(NC(=O)C6CC6)c5)cc24)CCC3)C1
Return: 1

Enquiry: Try the compound N[C@H]1CCN(c2c3c(nc4ccc(-c5nccc(NC(=O)C6CC6)n5)cc24)CCCCC3)C1
Return: 0

Enquiry: Same for N[C@H]1CCN(c2c3c(nc4ccc(-c5ccnc(NC(=O)C6CC6)c5)cc24)CCCCCC3)C1
Return: 1

Enquiry: Same read-out for N[C@H]1CCN(c2c3c(nc4ccc(-c5ccnc(NC(=O)C6CC6)c5)cc24)-c2ccccc2CCC3)C1 ?
Return: 0

Enquiry: Entry to check: N[C@H]1CCN(c2c3c(nc4ccc(-c5ccnc(Nc6ccc(S(=O)(=O)N7CCOCC7)cc6)c5)cc24)CCCCC3)C1
Return: 0
